# system name: T1, human mesothelin (recombinant, soluble, purified; 40 kDa C-terminal polypeptide of the mesothelin precursor) (human, UniProt Q13421 296-598, limits assumed)
# T1 construct: also called soluble mesothelin
# T1 sequence (Q13421 other isoform, or with tags, fused parts or gaps limits assumed): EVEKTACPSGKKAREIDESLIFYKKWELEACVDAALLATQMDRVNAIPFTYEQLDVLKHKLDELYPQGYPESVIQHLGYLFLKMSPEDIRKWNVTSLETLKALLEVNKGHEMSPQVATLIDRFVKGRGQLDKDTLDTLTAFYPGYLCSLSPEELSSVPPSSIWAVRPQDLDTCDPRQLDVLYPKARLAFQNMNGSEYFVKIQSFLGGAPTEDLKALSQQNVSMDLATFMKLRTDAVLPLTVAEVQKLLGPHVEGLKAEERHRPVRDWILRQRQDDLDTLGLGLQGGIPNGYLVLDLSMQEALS
# experiment notes: SPR (Biacore), Fab on directly immobilized mesothelin
metric name: pKd
// scale note: pKd = -log10(conc_M); give the bare number

Solved entries:
- MOR06631 Fab (Fab, V domains shown, Purified Fab) VH: QVQLVQSGAEVKKPGESLKISCKGSGYSFTNYWIGWVRQMPGKGLEWMGFIWPVDSWTQYSPSFQGQVTISADKSISTAYLQWSSLKASDTAMYYCARYGHGMYGGALDVWGQGTLVTVSS VL: DIVLTQSPATLSLSPGERATLSCRASQSVRSSRLAWYQQKPGQAPRLLIYGASKRATGVPARFSGSGSGTDFTLTISSLEPEDFATYYCQQYYDFPPTFGQGTKVEIKR: 10.05
- MF-A Fab (Fab, V domains shown, Purified Fab) VH: QVQLVQSGAEVKKPGSSVKVSCKASGGTFSSYYFSWVRQAPGQGLEWMGGIIPKFGSANYAQKFQGRVTITADESTSTAYMELSSLRSEDTAVYYCARRTSMDYWGQGTLVTVSS VL: DIALTQPASVSGSPGQSITISCTGTSSDVGGYNYVSWYQQHPGKAPKLMIYSVSKRPSGVSNRFSGSKSGNTASLTISGLQAEDEADYYCGAWAHMSLGKVFGGGTKLTVLG: 7.72

Memo: MOR06669 Fab (Fab, V domains shown, Purified Fab) VH: QVQLVQSGAEVKKPGESLKISCKGSGYSFTNYWIGWVRQMPGKGLEWMGIIWPIDSFTQYSPSFQGQVTISADKSISTAYLQWSSLKASDTAMYYCARYGHGMYGGALDVWGQGTLVTVSS VL: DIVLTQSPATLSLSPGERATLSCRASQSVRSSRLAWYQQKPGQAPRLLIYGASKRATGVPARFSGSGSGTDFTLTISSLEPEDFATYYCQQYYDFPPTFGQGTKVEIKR , reported pKd: 9.62
